Experiment: NCI Yeast Anticancer Drug Screen. Data for the rad50 strain (AID 155);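 also: 0% = growth of vehicle-only cultures of the same strain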
Settings: S. cerevisiae rad50 strain growth inhibition, stronger effect = higher value; at 50.0 µM unless noted
Compounds without any hit were thinned out: in the full panel of roughly 79,000, 15% have a hit.
Would you mind telling me the reported growth inhibition of each entry?
Expressed in %, but write only the number.

## Input Look up growth inhibition for this compound: O=C(Cc1ccccc1)N/N=C(/c1nc2ccc([N+](=O)[O-])cc2[nH]c1=O)C(O)c1ccccc1Cl (stereo unspecified)
## Output 0.8

## Input What do you have for COc1cccc(OC)c1NC(=O)C(=O)Nn1c(NNC(=O)c2ccncc2)nc2ccccc2c1=O ?
## Output 28.6

## Input Also O=C(O)c1cccc(-c2ccccc2)c1O.O=C(O)c1cccc(-c2ccccc2)c1O.[Cu] , if possible.
## Output 41.2

## Input Can you check CC(C)OC(=S)SC1CCCCC1=O (stereo unspecified) next?
## Output -0.45

## Input Repeat for the following compound: COC1OCC(N=[N+]=[N-])C(OS(C)(=O)=O)C1OS(C)(=O)=O (stereo unspecified)
## Output -1.65

## Input One more compound: CC1CC(=O)CC(C)(C)N1 (stereo unspecified)
## Output -9.4

## Input Now consider O=Cc1ccc(C=O)o1 .
## Output 4.25

## Input Next compound: Oc1ccccc1-c1cc(-c2ccccc2)nc(NCCCNc2nc(-c3ccccc3)cc(-c3ccccc3O)n2)n1
## Output -11.2

## Input Follow-up entry: Nc1nccs1
## Output -0.45

## Input Same for Cc1c2n(c(=O)[nH]c1=O)C1OC(CO)C(O2)C1N=[N+]=[N-] (stereo unspecified)
## Output -11.1

## Input Same question, CCN(CC)OC(=O)/C=C/c1ccccc1 this time
## Output 2.05
